Values compiled from patent US20210317231A1.

system: T1, human 5T4 oncofoetal antigen (human, UniProt Q13641 32-420)
T1 construct: whole, on cells; also called hu 5T4; human 5T4 antigen
T1 sequence (looked up): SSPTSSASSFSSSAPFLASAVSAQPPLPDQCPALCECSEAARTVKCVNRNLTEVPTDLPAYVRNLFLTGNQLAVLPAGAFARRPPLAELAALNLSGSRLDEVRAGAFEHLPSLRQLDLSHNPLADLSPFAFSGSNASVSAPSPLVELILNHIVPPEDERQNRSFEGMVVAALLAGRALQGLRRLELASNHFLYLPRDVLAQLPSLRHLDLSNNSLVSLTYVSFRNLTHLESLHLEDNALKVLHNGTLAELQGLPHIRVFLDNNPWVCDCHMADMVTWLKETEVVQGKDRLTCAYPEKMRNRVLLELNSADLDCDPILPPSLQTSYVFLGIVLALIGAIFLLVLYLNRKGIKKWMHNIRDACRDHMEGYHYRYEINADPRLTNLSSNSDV
procedure.summary: flow cytometry, PA-1 cells
test.readout: EC50 (µg/mL)
Dear colleague, please return just the value in µg/mL, with no unit written.

Prompt line: // query EC50 value for entry chimeric anti-5T4 monoclonal antibody 789 (antibody, human IgG1, V domains shown, also called clone 789) VH: QSVEESGGRLVTPGTPLTLTCTASGFSLSSYWMSWVRQAPGKGLEWIGIIAGRGSTYYASWAKGRCTISKTSTTVDLKITSPTTEDTAAYFCARVSSIYYTFNLWGQGTLVTVSS VL: AQVLTQTPSSVSAAVGGTVTINCQSSQSVYSNNELSWYQQKPGQPPKLLIYYASTLASGVPSRFKGSGSGTQFTLTISGVQSDDAATYYCQGSYYSGSGWYYAFGGGTEVVVK
Response line: 0.03

Prompt line: // query EC50 value for entry chimeric anti-5T4 monoclonal antibody 841 (antibody, human IgG1, V domains shown) VH: QSLEESGGRLVTPGTPLTLTCKASGFSLSTYWMSWVRQAPGKGLEWIGIMLSYGNTVYANWAKGRFTISKTSSTTVDLKITSPTTEDTATYFCARGLYGGYPNYGVYDLWGQGTLVTVSS VL: DVVMTQTPASVEAAVGGTVTIKCQASQSISSYLSWYQQKPGQPPKLLIYAASNLASGVSSRFKGSRSGTEYTLTISDLESADAATYYCQCTDYGSNYVGAFGGGTEVVVK
Response line: 0.02
